molecular target: human recombinant 6His-Nterm SHP2 full-length (Thr2-Arg593) (Homo sapiens); construct: 6His-Nterm SHP2 full-length (Thr2-Arg593, R&D system); 6His (N); purchased R&D system; experiment: SHP2 Phosphatase Assay (DiFMUP fluorescence); assay type: biochemical; settings: SHP2 0.2 nM pre-incubated with 100 nM bi-phosphorylated activating peptide; compound 1000-0.05 nM, 30 min pre-incubation; DiFMUP 20 µM, 45 min, room temperature; 10-concentration dose-response
Counter-ions that a name gives are not always drawn.
measured-quantity: IC50 (µM)

Check out these entries, answers already filled in.
Cc1nc(N2CCC3(CC2)Cc2ncccc2[C@H]3N)c2ccnn2c1-c1cc2ccccc2n1C = 0.01
COc1cnc2c(c1)[C@@H](N)C1(CCN(c3nc(C)c(-c4ccnc(C)c4Cl)n4nccc34)CC1)C2 = 0.01

A. Cc1nccc(Sc2c(C)nc(N3CCC4(CC3)Cc3ncccc3[C@H]4N)c3ccnn23)c1Cl
B. Cc1nc(N2CCC3(CC2)Cc2ncccc2[C@H]3N)c2ccnn2c1-c1cc(C(F)(F)F)ccc1F
C. Cc1nc(N2CCC3(CC2)Cc2ncccc2[C@H]3N)c2ccnn2c1-c1ccc2ncccc2c1F [Compound 30, formate]
INPUT: Highest IC50 first, then in falling order down to the smallest. Ranked list of labels, please, in the requested order.
OUTPUT: B, C, A
(B: 0.25 µM, C: 0.017 µM, A: 0.008 µM)

====

molecular target: human recombinant 6His-Nterm SHP2 full-length (Thr2-Arg593) (Homo sapiens); construct: 6His-Nterm SHP2 full-length (Thr2-Arg593, R&D system); 6His (N); experiment: SHP2 Phosphatase Assay (DiFMUP fluorescence); conditions: SHP2 0.2 nM pre-incubated with 100 nM bi-phosphorylated activating peptide; compound 1000-0.05 nM, 30 min pre-incubation; DiFMUP 20 µM, 45 min, room temperature; 10-concentration dose-response
pIC50: −log10 of the molar value.
measured-quantity: pIC50

1. Cc1nc(N2CCC3(CC2)Cc2ncccc2[C@H]3N)c2ccnn2c1-c1c(F)cccc1F [Compound 115]
2. Cc1nc(N2CCC3(CC2)Cc2ncccc2[C@H]3N)c2cc(C(F)F)nn2c1-c1cnn(C)c1C [Compound 36]
3. Cc1nc(N2CCC3(CC2)Cc2ncccc2[C@H]3N)c2ccnn2c1-c1ccn(C)c(=O)c1F [Compound 228]
4. Cc1nccc(-c2c(C)nc(N3CCC4(CC3)[C@H](N)c3ccccc3N4C)c3ccnn23)c1Cl [Compound 156]
INPUT: Give the descending pIC50 ranking for the 4 compounds listed above. Ranked list of labels, please, in the requested order.
OUTPUT: 1, 4, 3, 2
(1: 7.96, 4: 7.46, 3: 7.07, 2: 6.64)

I. Cc1cccc(-c2c(C)nc(N3CCC4(CC3)Cc3ncccc3[C@H]4N)c3ccnn23)c1F [Compound 166]
II. COc1cc2c(cn1)[C@@H](N)C1(CCN(c3nc(C)c(-c4ccccc4F)n4nccc34)CC1)C2 [Compound 122]
III. Cc1nc(N2CCC3(CC2)Cc2ccc(C#N)cc2[C@@H]3N)c2ccnn2c1-c1cnn(C)c1C (single isomer, unassigned) [Compound 212]
IV. Cc1nc(N2CCC3(CC2)Cc2ncccc2[C@H]3N)c2ccnn2c1-c1cccc(Cl)c1Cl [Compound 192]
INPUT: Which order do these items take when sorted by rising pIC50? List them. Ranked list of labels, please, in the requested order.
OUTPUT: III, II, I, IV
(III: 6.54, II: 7.92, I: 8.15, IV: 8.70)

====

molecular target: human recombinant 6His-Nterm SHP2 full-length (Thr2-Arg593) (Homo sapiens); construct: 6His-Nterm SHP2 full-length (Thr2-Arg593, R&D system); 6His (N); assay: SHP2 Phosphatase Assay (DiFMUP fluorescence); details: SHP2 0.2 nM pre-incubated with 100 nM bi-phosphorylated activating peptide; compound 1000-0.05 nM, 30 min pre-incubation; DiFMUP 20 µM, 45 min, room temperature; 10-concentration dose-response
Structures can show the parent of a compound that is named as a salt.
measured-quantity: pIC50
Field pIC50 (float): negative decimal logarithm of the concentration in molar.

COc1cc2c(cn1)CC1(CCN(c3nc(C)c(-c4ccnc(C)c4Cl)n4nccc34)CC1)[C@@H]2N = 8.22
Cc1nc2c(s1)[C@@H](N)C1(CCN(c3nc(C)c(-c4ccccc4F)n4nccc34)CC1)C2 [Compound 83, hydrochloride] = 8.00

INPUT: Item under review: CCn1ncc(-c2c(C)nc(N3CCC4(CC3)Cc3ccc(OC)cc3[C@H]4N)c3ccnn23)c1C [Compound 125, hydrochloride] . Reported pIC50?
OUTPUT: 8.05

====

biological target: human recombinant 6His-Nterm SHP2 full-length (Thr2-Arg593) (Homo sapiens, UniProt Q06124); construct: 6His-Nterm SHP2 full-length (Thr2-Arg593, R&D system); 6His (N); experiment: SHP2 Phosphatase Assay (DiFMUP fluorescence); details: SHP2 0.2 nM pre-incubated with 100 nM bi-phosphorylated activating peptide; compound 1000-0.05 nM, 30 min pre-incubation; DiFMUP 20 µM, 45 min, room temperature; 10-concentration dose-response
Sequence (Q06124 2-593): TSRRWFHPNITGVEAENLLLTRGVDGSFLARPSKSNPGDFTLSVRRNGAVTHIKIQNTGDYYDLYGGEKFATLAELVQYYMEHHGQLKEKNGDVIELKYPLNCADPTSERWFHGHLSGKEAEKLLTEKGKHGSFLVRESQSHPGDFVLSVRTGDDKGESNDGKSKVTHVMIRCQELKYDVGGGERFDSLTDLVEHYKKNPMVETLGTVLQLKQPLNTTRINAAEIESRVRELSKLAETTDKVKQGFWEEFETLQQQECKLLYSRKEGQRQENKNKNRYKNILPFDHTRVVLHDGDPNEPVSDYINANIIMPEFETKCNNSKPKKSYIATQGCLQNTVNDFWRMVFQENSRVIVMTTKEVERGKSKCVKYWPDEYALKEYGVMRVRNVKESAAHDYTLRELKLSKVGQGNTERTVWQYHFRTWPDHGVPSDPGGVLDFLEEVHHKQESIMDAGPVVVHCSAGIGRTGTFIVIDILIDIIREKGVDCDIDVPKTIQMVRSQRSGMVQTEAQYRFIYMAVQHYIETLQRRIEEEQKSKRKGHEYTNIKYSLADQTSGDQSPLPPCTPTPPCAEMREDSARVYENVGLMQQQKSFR
Where a name gives a salt, the structure may show the parent alone.
measured-quantity: IC50 (nM)

Cc1nc(N2CCC3(CC2)Cc2ncccc2[C@H]3N)c2ccnn2c1-c1ccc2nccnc2c1 [Compound 27, hydrochloride] = 16

P. Cc1cccc(-c2c(C)nc(N3CCC4(CC3)Cc3ncccc3[C@H]4N)c3ccnn23)c1C
Q. COc1cnc2c(c1)[C@@H](N)C1(CCN(c3nc(C)c(-c4cccc(F)c4F)n4nccc34)CC1)C2
INPUT: Which has the higher IC50, P or Q ? Lab note: record the label of whichever item you select.
OUTPUT: Q

====

target: human recombinant 6His-Nterm SHP2 full-length (Thr2-Arg593) (Homo sapiens, UniProt Q06124); construct: 6His-Nterm SHP2 full-length (Thr2-Arg593, R&D system); 6His (N); experiment: SHP2 Phosphatase Assay (DiFMUP fluorescence); conditions: SHP2 0.2 nM pre-incubated with 100 nM bi-phosphorylated activating peptide; compound 1000-0.05 nM, 30 min pre-incubation; DiFMUP 20 µM, 45 min, room temperature; 10-concentration dose-response
Counter-ions that a name gives are not always drawn.
measured-quantity: IC50 (nM)
Express it in nM; write the number only.

Cc1cc2c(cn1)CC1(CCN(c3nc(C)c(-c4cccc(C#N)c4F)n4nccc34)CC1)[C@@H]2N [Compound 117, hydrochloride] = 10
COc1ccc2c(c1)[C@@H](N)C1(CCN(c3nc(C)c(-c4ccnc(C)c4F)n4nccc34)CC1)C2 [Compound 118, hydrochloride] = 4
Cc1nc(C)c(-c2c(C)nc(N3CCC4(CC3)Cc3ncccc3[C@H]4N)c3ccnn23)s1 [Compound 161, hydrochloride] = 29
Cc1nc(N2CCC3(CC2)Cc2nc(O)ccc2[C@H]3N)c2ccnn2c1-c1cccc(F)c1F [Compound 222, hydrochloride] = 1
Cc1nccc(-c2c(C)nc(N3CCC4(CC3)Cc3ccccc3[C@H]4N)c3ccnn23)c1Cl [Compound 25, hydrochloride] = 6
Cc1nc(N2CCC3(CC2)Cc2ncccc2[C@H]3N)c2ccnn2c1-c1ccnn1C [Compound 29, hydrochloride] = 38
Cc1nc(N2CCC3(CC2)Cc2ncccc2[C@H]3N)c2ccnn2c1-c1ccnc(C(C)C)c1Cl [Compound 7, hydrochloride] = 13

INPUT: Item under review: COc1ccc2c(c1)[C@@H](N)C1(CCN(c3nc(C)c(-c4ccncc4Cl)n4nccc34)CC1)C2 [Compound 119, hydrochloride] . Reported IC50?
OUTPUT: 4
